System: NCI-H358 (K-Ras G12C)
Assay: CellTiter-Glo cell viability assay, NCI-H358
Type: cell-based, human
Details: Homo sapiens, NCI-H358, 120 h, NCI-H358, 5-day treatment; class symbols; read-out: Additional H358 Cell Viability assay data (K-Ras G12C, IC50)
pIC50: −log10 of the molar value.
Field: pIC50. Provide a value for each of the molecules that follow.

Prompt: I would be grateful if you could share the reported pIC50 for CCn1c(-c2cnccc2[C@H](C)OC)c2c3cc(ccc31)-c1cc(O)cc(c1)C[C@H](NC(=O)[C@H](C(C)C)N(C)C(=O)[C@H]1CCN(C(=O)C#CCN(C)C)C1)C(=O)N1CCC[C@H](N1)C(=O)OCC(C)(C)C2 .
Response: > 8.00

Prompt: Name the recorded pIC50 for CCn1c(-c2cccnc2[C@H](C)OC)c2c3cc(ccc31)C1CCCN(C1)C[C@H](NC(=O)[C@@H](COC1CN(C(=O)C#CC(C)(C)N(C)C)C1)C(C)C)C(=O)N1CCC[C@H](N1)C(=O)OCC(C)(C)C2 .
Response: 7.00 to 8.00

Ref: patent US11566007B2
